Data provenance is ChEMBL document CHEMBL4422610.

Would you kindly list IC50 for each of these compounds?
Target: Histone deacetylase 1 (Homo sapiens)
Sequence (Q13547 whole entry): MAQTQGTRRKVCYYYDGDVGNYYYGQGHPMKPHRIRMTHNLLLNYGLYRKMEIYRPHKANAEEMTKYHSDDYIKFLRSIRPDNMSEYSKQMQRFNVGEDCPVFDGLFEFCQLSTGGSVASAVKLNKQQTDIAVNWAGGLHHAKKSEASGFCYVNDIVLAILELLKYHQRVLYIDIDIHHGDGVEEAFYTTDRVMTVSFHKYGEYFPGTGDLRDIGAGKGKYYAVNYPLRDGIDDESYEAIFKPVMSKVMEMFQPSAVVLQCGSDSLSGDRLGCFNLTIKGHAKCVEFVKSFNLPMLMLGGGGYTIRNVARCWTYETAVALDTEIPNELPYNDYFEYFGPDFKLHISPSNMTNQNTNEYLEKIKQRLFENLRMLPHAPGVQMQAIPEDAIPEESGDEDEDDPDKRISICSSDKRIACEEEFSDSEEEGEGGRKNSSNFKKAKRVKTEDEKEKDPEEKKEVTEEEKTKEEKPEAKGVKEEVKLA
Assay: Inhibition of recombinant human HDAC1 expressed in HEK293T cells using Ac-KGLGK(Ac)-MCA as substrate measured after 30 mins by fluorescence assay
Give bare numbers, in nM.

Study these solved cases before continuing.
{"columns": ["compound", "readout", "recorded_value"],
 "data": [
  ["CC1CCCC2(C1)NC(=O)[C@H](CCCCCC(=O)NO)NC(=O)[C@H]1CCCN1C(=O)[C@H](Cc1ccccc1)NC2=O (some centres undefined)", "IC50", 15],
  ["CC1CCCCC12NC(=O)[C@H](CCCCCC(=O)NO)NC(=O)[C@H]1CCCN1C(=O)[C@H](Cc1ccccc1)NC2=O (some centres undefined)", "IC50", 10]
]}

Provide the reported IC50 of each entry below, same order.
1. O=C1N[C@@H]2CCCCCCCCCCC[C@H](NC2=O)C(=O)N2CCC[C@@H]2C(=O)N[C@H]1CCCCCB(O)O
2. COCC(=O)CCCCC[C@@H]1NC(=O)[C@H]2CCCN2C(=O)[C@@H]2CCCCCCCCCCC[C@@H](NC1=O)C(=O)N2

Ans.
[12000, 27]

---

Would you kindly list pIC50 for each of these molecules?
Target: UniProt Q13547
Test: Inhibition of GST-tagged HDAC1 (unknown origin) expressed in insect cells using poly (Glu, Tyr) 4:1 as substrate measured after 15 mins in presence of [gamma-33P]ATP by Topcount method
Answers are plain numbers, as −log10 of the molar value.

{"columns": ["molecule", "target_of_assay", "pIC50"],
 "data": [
  ["O=C(/C=C/c1ccc(C2CCCN2CCc2c(-c3cccnc3)nn3ccccc23)cc1)NO (stereo unspecified)", "UniProt Q13547", 9.00]
]}

Provide the reported pIC50 of each entry below, same order.
1. CC(C)c1[nH]c2ccccc2c1C1CCCN(Cc2ccc(/C=C/C(=O)NO)cc2)C1 (stereo unspecified)
2. CCc1n[nH]c(CC)c1CCN1CCCC1c1ccc(/C=C/C(=O)NO)cc1 (stereo unspecified)
3. O=C(/C=C/c1ccc(C2CCCN2CCc2cnn3ccccc23)cc1)NO (stereo unspecified)

Ans.
1: 8.22; 2: 9.10; 3: 9.05

Provide the reported pIC50 of each entry below, same order.
1. Cc1[nH]c2ccccc2c1C1CCCN(Cc2ccc(/C=C/C(=O)NO)cc2)C1 (stereo unspecified)
2. Cc1nn2ccccc2c1CCN1CCCC1c1ccc(/C=C/C(=O)NO)cc1 (stereo unspecified)

Ans.
1. 8.22
2. 9.22

---

Would you kindly list IC50 for each of these molecules?
Target: Histone deacetylase 8 (Homo sapiens, UniProt Q9BY41)
Sequence (Q9BY41 whole entry): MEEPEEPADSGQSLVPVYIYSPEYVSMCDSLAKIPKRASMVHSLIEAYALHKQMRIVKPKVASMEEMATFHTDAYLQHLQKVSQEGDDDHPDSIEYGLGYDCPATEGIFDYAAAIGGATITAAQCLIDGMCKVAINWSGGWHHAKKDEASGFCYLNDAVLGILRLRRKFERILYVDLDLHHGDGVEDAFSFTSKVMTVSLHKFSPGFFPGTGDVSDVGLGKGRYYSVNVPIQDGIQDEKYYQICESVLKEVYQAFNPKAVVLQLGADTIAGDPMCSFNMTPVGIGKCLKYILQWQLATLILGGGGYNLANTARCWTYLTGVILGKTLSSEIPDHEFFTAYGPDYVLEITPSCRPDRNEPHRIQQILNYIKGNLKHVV
Assay: Inhibition of HDAC8 (unknown origin) using (FAM)-labeled acetylated peptide as substrate measured after 17 hrs by fluorescence assay

{"columns": ["smiles_notation", "recorded_value"],
 "data": [
  ["Nc1cccc(-c2csc(NC(=O)CCCCCCC(=O)Nc3ccccc3N)n2)c1", "> 30 µM"]
]}

We now examine a further molecule.
Qu. Form: Entry = Nc1ccccc1NC(=O)CCCCCCC(=O)Nc1ccc(-c2cn(Cc3ccccc3)nn2)cc1 | System = Histone deacetylase 8 (Homo sapiens, UniProt Q9BY41) | IC50 = ____
Ans. > 30 µM
